Tested on: HIV-1
TEST_DESCRIPTION: in vitro anti-HIV screening (NCI XTT soluble-formazan assay, protection of HIV-1-infected CEM T4 lymphocytes from cytolysis)
Format: cell-based
MEASUREMENT_SETUP: Human immunodeficiency virus 1, CEM-T4; 2.00 × 10^-7 Molar; read-out: Percent of Control, Infected
PROPERTY_LABEL: activity at 0.2 µM

[[record]]
compound = "O=C(Nc1ccc(C=Cc2ccc(NC(=O)c3cc(S(=O)(=O)O)c4cccnc4c3O)cc2S(=O)(=O)O)c(S(=O)(=O)O)c1)c1cc(S(=O)(=O)O)c2cccnc2c1O"
tested_system = "HIV-1"
observed_measurement = "27.9%"

[[record]]
compound = "O=C(O)CSCc1cc(C(=O)Nc2ccc(C=Cc3ccc(NC(=O)c4cc(CSCC(=O)O)c5cccnc5c4O)cc3S(=O)(=O)O)c(S(=O)(=O)O)c2)c(O)c2ncccc12"
tested_system = "HIV-1"
observed_measurement = "20%"

[[record]]
compound = "O=C(O)CCSCc1cc(C(=O)Nc2ccc(C=Cc3ccc(NC(=O)c4cc(CSCCC(=O)O)c5cccnc5c4O)cc3S(=O)(=O)O)c(S(=O)(=O)O)c2)c(O)c2ncccc12"
tested_system = "HIV-1"
observed_measurement = "10.4%"

[[record]]
compound = "O=C([O-])c1c(O)ccc(O)c1C(=O)Nc1ccc(C=Cc2ccc(NC(=O)c3c(O)ccc(O)c3C(=O)[O-])cc2S(=O)(=O)O)c(S(=O)(=O)O)c1.[Na+].[Na+] [Compound 29, disodium salt]"
tested_system = "HIV-1"
observed_measurement = "5.99%"

